# procedure_summary: Cytotoxicity against human HepG2 cells assessed as cell viability at 100 uM measured after 4 days by CellTiter-Glo luminescent cell viability assay relative to control
# Assay type: cell-based
# test_context: time 4 day, read-out: Activity
endpoint_name: viability at 96 h, 100 µM (%)
The reply should be a number in %, with the unit left off.

q: Sample NC(=O)c1ncn([C@@H]2O[C@H](CO)[C@@H](O)[C@H]2O)n1 — what was its viability at 96 h, 100 µM?
a: 100
